# protocolDescription: yeast display, Sf9 membrane polyspecificity reagent, FACS + sequencing; frameworks hold sequencing errors
recordedMetric: polyreactivity (PSR sort gate)

Worked cases, polyreactivity (PSR sort gate) given:
sequenceEntry: QVQLVESGGGLVQAGGSLRLSCAASGSTFSGNAMGWYRQAPGKEREMVAAITSSRGSTYYADSVKGRFTISRDHAQNTVDLQLNSLKPEDTAVYYCNRYSGGRWYPEYYYWGQGTQVTVSS
recordedMetric: polyreactivity (PSR sort gate)
valueReported: high polyreactivity
--
sequenceEntry: QVQLVESGGGLVQAGGSLRLSCAASGRIFKKYAMGWYRQAPGKERELVATISSGGSTYYADSVKGRFTISRDNAKNTVYLQMNSLKPEDTAVYYCARREYVRRDYFVTTYDYWGQGTQVTVSS
recordedMetric: polyreactivity (PSR sort gate)
valueReported: low polyreactivity
--
sequenceEntry: QVQLEESGGGLVQAGGSLRLSCAASGSTFGNYAKGWYRQAPGKERELVAAITATGGRTYYADSVKGRFTISRDNAKNTVYLQMNSVKPEDTAVYYCAAGYRTGGDSGDYWGQGTQVTVSS
recordedMetric: polyreactivity (PSR sort gate)
valueReported: high polyreactivity
--
sequenceEntry: QVQLVESRGGLVQAGGSLRLSCAASGRILDLNSMGWYRQAPGKEREFVAAISYSGGRTYYADSVKGRFTISRDNAKNTVYLQMNSLKPEDTAVYYCATDDVWKDGYWGQGTQVTVSS
recordedMetric: polyreactivity (PSR sort gate)
valueReported: low polyreactivity

Field polyreactivity (PSR sort gate) (entry QVQLVESGGGLVQAGGSLRLSCAASGRTFWYNAMGWYRQAPGKEREFVAAIRWTTGSTYYADSVKGRFTISRDNAKNTVYLQMNSLKPEDTAVYYCAASLYPVRRDYWGQGTQVTVSS ) reads high polyreactivity

Field polyreactivity (PSR sort gate) (entry QVQLVESGGGLVQAGGSLRLSCAASGSTFQYYAMGWYRQAPGKERELVASISLSGTSTYYADSVKGRFTISRDNAKNTVYLQMNSLKPEDTAVYYCAADIVPWWASFLYDGEDYWGQGTQVTVSS ) reads low polyreactivity

Field polyreactivity (PSR sort gate) (entry QVQLVESGGGLVQAGGSLRLSCAASGSTFLNYAMGWYRQAPGKERELVAAITGSGGRTYYADSVKGRFTISRDNAKNTVYLQMNSLKPEDTAVYYCAASATYDPHDYWGQGTQVTVSS ) reads high polyreactivity

* * *

# protocolDescription: yeast display, Sf9 membrane polyspecificity reagent, FACS + sequencing; frameworks hold sequencing errors
recordedMetric: polyreactivity (PSR sort gate)

sequenceEntry: QVQLVESGGGLVQAGGSLRLSCAASGSTFVRNAMGWYRQAPGKERELVAAITSSGGSTYYADSVKGRFTISRDNAKNTVYLQMNSLKPVDTAVYYCNARVPPQGWGPWKAFDYWGQGTQVTVSS
valueReported: low polyreactivity
--
sequenceEntry: QVQLVESGGGLVQAGGSLRLSCAASGSIFAWYAMGWYRQAPGKERELVAVITRGGSTNYADSVKGRFTISRDNAKNTVYLQMNSLKPEDTAVYYCAAGSYYSWYPFDYWGQGTQVTVSS
valueReported: low polyreactivity

* * *

# protocolDescription: yeast display, Sf9 membrane polyspecificity reagent, FACS + sequencing; frameworks hold sequencing errors
recordedMetric: polyreactivity (PSR sort gate)

sequenceEntry: QVQLVESGGGLVQAGGSLRLSCAATGSIFYQNAMGWYRQAPGKDRELVAAISSRGGRTYYADSVKGRFTISRDNAKNTVYLQMNSLKTEDTAVYYFNAARFPYSKDYDYWGQGNQVTVSS
recordedMetric: polyreactivity (PSR sort gate)
valueReported: high polyreactivity
--
sequenceEntry: QVQLVESGGGLVQAGGSLRLSCAASGLIFVYYTMGWYRQAPGKERELVAAIRSGGGTNYADSVKGRFTISRDNAKNTVYFQMNSLKPEDTAVYYCAASIRSYAYGGRKYNYWGQGSQVTVSS
recordedMetric: polyreactivity (PSR sort gate)
valueReported: high polyreactivity
--
sequenceEntry: QVQLVESGGGLVQAGGSLRLSCAASGRTFRWYAMGWYRKAPGKEWELVAAISYRGGSTYADSVKGRFTISRDNEKNTVNLQMNSLKPEDTAVYYCAAKYYDYGPYYYWGQGTQETVSS
recordedMetric: polyreactivity (PSR sort gate)
valueReported: high polyreactivity
--
sequenceEntry: QVQLEESGGGLVQAGGSLRLSCAASGRIFRYYTMGGYRQAPGKERELVDAISGSGGSTYYADSVKGRFTISRDNAKNTVYLQMNSLKPEDTSVYYCAAAHRYWGQGTQVTVSS
recordedMetric: polyreactivity (PSR sort gate)
valueReported: high polyreactivity

* * *

# protocolDescription: yeast display, Sf9 membrane polyspecificity reagent, FACS + sequencing; frameworks hold sequencing errors
recordedMetric: polyreactivity (PSR sort gate)

Worked cases, polyreactivity (PSR sort gate) given:
sequenceEntry: QVQLVESGGGLVQAGGSLRLSCAASGFTIWRYAMGWYRQEPGKERELVAAISRGGSTNYADSVKGRFTISRDNAKNTVYLQMNSLKPEDTAVYYCAASVLYRRLKKFYYWGQGTQVTVSS
polyreactivity (PSR sort gate): high polyreactivity
//
sequenceEntry: QVQLVESGGGLVQAGGSLRLSCAASGITFYGYAMGWYRQEPGKERELVATISSGGGTNYADSVKGRFTISRDNAKNTVYLQMNSLKPEDTAVYYCATDLSTVDYNYWGQGTQVTVSS
polyreactivity (PSR sort gate): low polyreactivity
//
sequenceEntry: QVQLVESGGGLVQAGGSLRLSCAASGSTFIVYAMGWYRQAPGKERELVAAISLDGGSTYYADSVKGRFTISRDNAKNTVYLQMNSLKPEDTAVYYCNADYYANSITYDSWGQGTQVTVSS
polyreactivity (PSR sort gate): low polyreactivity
//
sequenceEntry: QVQLVESGGGLVQAGGSLRLSCAASGSIFGYYAMGWYRQAPGKERELVASITRSGGSTYYADSVKGRFTISRDNAKNTVYLQMNSLQPEDTAVYYCAVARYRHGRSGTYDVTGEYWGQGTQVTVSS
polyreactivity (PSR sort gate): high polyreactivity
//
sequenceEntry: QVQLVESGGGLVQAGGSLRLSCAASGSTFGDYTMGLYRQAPGKERELVAAITLTGGSTYYADSVKGRFTISRDNAKNTVYLQMNSLKPEDTAVYYCAKEWIFDFNYWGQGTQVTVSS
polyreactivity (PSR sort gate): low polyreactivity
//
sequenceEntry: QGQLVESGGGLVQAGGSLRLSCAASGITFPYYAMGWYRQAPGKERELVADITSGGSTNYADSVKGRFTISRDNAKNTVYLQMNSLKPDDTAVYYCAADWYVIYDYWGQGTQVTVSS
polyreactivity (PSR sort gate): low polyreactivity

Field polyreactivity (PSR sort gate) (entry QVQLVESGGGLVQAGGSLRLSCAASGIIFWAYAMGWYRQAPGKERELVAAISWSGGRTYYADSVKGRFTISRDNAKNTVYLQMNSLKPEDTAVYYCAAYRFLLYDYWGQGTQVTVSS ) reads high polyreactivity

Field polyreactivity (PSR sort gate) (entry QVQLVESGGGLVQAGGSLRLSCAASGRTFYYYARGWYRQAPGKEREVVASITSGDGTYYADSVQGRFTISRDYAQNTVYLQMNSLKPEATAVYYCAADIFYKFSYYPWYPYRDYYYWGQGTQVTVSS ) reads low polyreactivity

Field polyreactivity (PSR sort gate) (entry QVQLVESGGVLVQAGGSLRLSCAASGSISFNAMGWYRQAPGKERELVAAITTSGGRTYYADSVKGRLTISRDNAKNTVSLQMNSLKPEDTAVYYCNVASKGRFARYAAEYVSWRQGTQVTVSS ) reads high polyreactivity

Field polyreactivity (PSR sort gate) (entry QVQLVESGGGLVQAGGSLRLICAASGRTSVVNAMGWYRQAPGKERELVAAITSGGSTHYADSVKGRFTISRDNAKNTVYLQITSLKPEDTAGYYFNARDRRRTNLLDYWGQATQVTVSS ) reads low polyreactivity

Field polyreactivity (PSR sort gate) (entry QVQIVESGGGLVQAGGSLRLSCAASGSIFGVNAMGWYRQAPGKERELVASITGGDSTNYADSVKGRFTISRDNAKNTVYLQMNSLKPEDTAVYYCAKDHYYRYEEGDYWGQGTQVTVSS ) reads low polyreactivity

Field polyreactivity (PSR sort gate) (entry QVQLVESGGGLVQAGGSLRLSCAASGGTFGYNAMGWYRQAPWKERELVAAISSGGRTYYADSVKGRFTISRDNAKNTVYLQMNSLKPEDTAVYYCNARKGLYYGGRYDYWGQGTQVTVSS ) reads high polyreactivity

Field polyreactivity (PSR sort gate) (entry QVHLVESWGGLVQAGGSLRLICAASGSTFYANAMGWYRQAPGKERQLVAAITRSRRSTYYADSVKGRFTISRDNAKNTVYLQMNSLKRVDTAVYYFSARRVRDRVRYDYCGQGTQVTVSS ) reads high polyreactivity

Field polyreactivity (PSR sort gate) (entry QVQLVESGGGLVQAGGSIRLSCAASGSTLQGNAMGWYRQAPGKERELDAAISRSGGSTYADSVKGRFTISRDNAKNTVYLLMNSLKPEDTAVYYCAAYSGVGYLWFVYWGQGTQVTVSS ) reads low polyreactivity

Field polyreactivity (PSR sort gate) (entry QVQLVESGGGLVQAGGSLRLSCAASGFTFHDYVMAWYRQAPGKERELVAAISRSGGSTYYADSVKGRFTISRDNAKHTVYLQMNSLIPEDTAVYYCAAREYTTGGWRYNYWGQGTQVTVSS ) reads high polyreactivity

Field polyreactivity (PSR sort gate) (entry QVQLVESARGIVQAGGSLRLSSAASGFIFYSSAMGGYRQAPGYERELVAGITSGGITSYADSVKGRFTISRDNAKNTVYLQMNSLKPEYTAVYYCAAVVVYQNYNYYYWGQGTQVTVSS ) reads high polyreactivity

Field polyreactivity (PSR sort gate) (entry QVQLVESGGGLVQAGGSLRLSCAASGSIFQKNAMGWYRQAPGKERELVAVITRGGTSTYYADSVKGRFTISRDNAKNTVYLQMNSLKAEDTAVYSCAAKADKRLDYWGQGTQVTVSS ) reads low polyreactivity

Field polyreactivity (PSR sort gate) (entry QVQLVESGGGLVQAGGSLRLSCAASGGIFSGNDMGWYRHAPGKESEFVAAISWSGGSTYYADSVKGRFTISRDNAKNTVYLQMNSLKPEDTAVYYCAAAHYFLGPQGASFYYWGQGTQVTVSS ) reads low polyreactivity

Field polyreactivity (PSR sort gate) (entry QVQLVESGGGLVQAGGSLRLSCAASGSTFTYYAMGWYRQAPGKERELVAAITWSGGSTYYADSVKGRFTISRDNAKNTVYLQMNSLKPEDTAVYYCNVYSIWGTYDYWGQGTQVTVSS ) reads low polyreactivity

Field polyreactivity (PSR sort gate) (entry QVQLVESGGGLVQAGGSLRLSCAASGRTFRDNAMGWYRQAPGKDRELVAAIDIDSSTYYADSVEGRFTISRDNAKNTVYLQMNSLKPEDTAVYYCAAESYHDGKGFPDYEYWGQGTQVTVSS ) reads low polyreactivity

Field polyreactivity (PSR sort gate) (entry QVQLVESGGGLVQAGGSLRLSCADSASIFRNAMGWYRQAPRKERELVAGIRWSDGSTNYADSVKGRFTISRDNANITVYLQMNSLKPEDTAVYYCAKGAYFARRMYYWGQGTQVTVSS ) reads low polyreactivity

meta.source: the nanobody polyreactivity screen of Harvey et al. (2022)
